tested on: FB; assay: Euclidean distance of Cell Painting phenotypic profile (signed KS, 77 features) to DMSO centroid (dimensionless distance); 5 or 10 uM (library dependent); higher = stronger phenotypic change vs DMSO (phenoactivity); conditions: 48 h
Binary classification by Euclidean distance, with 1 as an inclusive lower bound for t; all other cases are f.

C[C@]12C=CC(=O)N[C@@H]1CC[C@@H]1[C@@H]2CC[C@]2(C)[C@@H](C(=O)Nc3cc(C(F)(F)F)ccc3C(F)(F)F)CC[C@@H]12 [Dutasteride] ... t

Prompt: Say whether O=C(N/N=C/c1ccc(O)c(O)c1)c1cc2ccccc2cc1O [Dynasore] shows Euclidean distance of 1 or more.
Response: f

Prompt: Say whether C[C@H](N)[C@H](O)c1cccc(O)c1 [Metaraminol Bitartrate] shows Euclidean distance of 1 or more.
Response: t

Prompt: Say whether Oc1ccc(OC2CCCCO2)cc1 (centres undefined) [Deoxyarbutin] shows Euclidean distance of 1 or more.
Response: t

Prompt: Say whether `Cc1cnc(NC(=O)Nc2cc(Br)c(C)cc2OC[C@@H]2CNCCO2)cn1` shows Euclidean distance of 1 or more.
Response: t

Prompt: Say whether CCOc1cc2ncc(C#N)c(Nc3ccc(OCc4ccccn4)c(Cl)c3)c2cc1NC(=O)/C=C/CN(C)C [Neratinib (HKI-272)] shows Euclidean distance of 1 or more.
Response: t

###

The entries below come with measured Euclidean distance values attached.
system: FB; assay: Euclidean distance of Cell Painting phenotypic profile (signed KS, 77 features) to DMSO centroid (dimensionless distance); 5 or 10 uM (library dependent); higher = stronger phenotypic change vs DMSO (phenoactivity); conditions: 48 h
Counter-ions that a name gives are not always drawn.
Reply briefly: the number, and no unit.

Check out these entries, answers already filled in.
CN(C)[C@@H](CCOc1cccc2ccccc12)c1ccccc1 [Dapoxetine HCl] ... 1.26
Nc1ncn([C@H]2C[C@H](O)[C@@H](CO)O2)c(=O)n1 ... 1.43
COc1ccc2cc([C@H](C)C(=O)O)ccc2c1 [Naproxen Sodium] ... 0.856
CC(=O)O[C@H]1C[C@@H]2CC[C@@H]3[C@H](CC[C@@]4(C)[C@H]3C[C@H]([N+]3(C)CCCCC3)[C@@H]4OC(C)=O)[C@@]2(C)C[C@@H]1N1CCCCC1 [Vecuronium Bromide] ... 1.07

Would you kindly look at the next entry?
Prompt: # Euclidean distance lookup, item CCOCC(O)COc1ccc(NC(=O)CC[S+](C)C)cc1 (stereo not given) [Suplatast Tosylate]
Response: 1.14

###

system: DU145; assay: Euclidean distance of Cell Painting phenotypic profile (signed KS, 77 features) to DMSO centroid (dimensionless distance); 5 or 10 uM (library dependent); higher = stronger phenotypic change vs DMSO (phenoactivity); details: 48 h
The entries below come with measured Euclidean distance values attached.
Reply briefly: the number, and no unit.

O=C(c1ccc(Nc2nccc(-c3cc4ccccc4s3)n2)cc1)N1CCC(N2CCCC2)CC1 ... 3.04

Prompt: # Euclidean distance lookup, item `C[C@H]1C[C@H]2[C@@H]3CCC4=CC(=O)C=C[C@]4(C)[C@@]3(F)[C@@H](O)C[C@]2(C)[C@@]1(O)C(=O)CO`
Response: 2.37

Prompt: # Euclidean distance lookup, item `CNC(=O)c1ccc(-c2cnc3ncc(Cc4ccc5ncccc5c4)n3n2)cc1F`
Response: 0.871

Prompt: # Euclidean distance lookup, item CCCCNc1ncc(-c2ccc(CN3CCOCC3)cn2)c(NC2CCC(O)CC2)n1 (stereo not drawn)
Response: 0.694

Prompt: # Euclidean distance lookup, item `CCCCc1oc2ccc(NS(C)(=O)=O)cc2c1C(=O)c1ccc(OCCCN(CCCC)CCCC)cc1`
Response: 3.45

Prompt: # Euclidean distance lookup, item `CC(C)=CCC/C(C)=C/CC/C(C)=C/CC/C(C)=C/CC/C(C)=C/CC/C(C)=C/CC1=C(C)C(=O)c2ccccc2C1=O`
Response: 1.1

Prompt: # Euclidean distance lookup, item `C/C(=C\C(=O)Nc1ccccc1C(=O)O)c1ccc2ccccc2c1`
Response: 1.76

Prompt: # Euclidean distance lookup, item `Nc1ccc(C(=O)Nc2cccc(-c3nc(N4CCOCC4)c4oc5ncccc5c4n3)c2)cn1`
Response: 4.16

###

system: DU145; experiment: Euclidean distance of Cell Painting phenotypic profile (signed KS, 77 features) to DMSO centroid (dimensionless distance); 5 or 10 uM (library dependent); higher = stronger phenotypic change vs DMSO (phenoactivity); conditions: 48 h
Where a name gives a salt, the structure may show the parent alone.
Binary classification by Euclidean distance, with 2 as an inclusive lower bound for label 1; all other cases are label 0.

These solved cases illustrate the format of a correct answer.
CCOC(=O)[C@H]1O[C@@H]1C(=O)N[C@@H](CC(C)C)C(=O)NCCC(C)C ... label 0
CC(=O)NS(=O)(=O)c1ccc(N)cc1 [Sulfacetamide Sodium] ... label 0
COc1ccc(Cc2cnc(N)nc2N)cc1OC ... label 0

Prompt: Say whether `COC[C@H](NC(=O)c1cnc(C)s1)C(=O)N[C@@H](COC)C(=O)N[C@@H](Cc1ccccc1)C(=O)[C@@]1(C)CO1` shows Euclidean distance of 2 or more.
Response: label 1

Prompt: Say whether CC[C@@H](CO)NCCN[C@@H](CC)CO [Ethambutol HCl] shows Euclidean distance of 2 or more.
Response: label 0

Prompt: Say whether CCOC(=O)Nc1ccc(NCc2ccc(F)cc2)nc1N [Flupirtine maleate] shows Euclidean distance of 2 or more.
Response: label 0

Prompt: Say whether `N=C(N)NCCC[C@H](N)C(=O)O` shows Euclidean distance of 2 or more.
Response: label 0

Prompt: Say whether OC(c1ccccc1)(c1ccccc1)C12CC[N+](CCOCc3ccccc3)(CC1)CC2 [Umeclidinium bromide] shows Euclidean distance of 2 or more.
Response: label 0

Prompt: Say whether `CCS(=O)(=O)N1CCN(c2ccc(Nc3ncc(C(N)=O)c(NC4CC4)n3)cc2)CC1` shows Euclidean distance of 2 or more.
Response: label 1

###

test system: 786-O; assay: Euclidean distance of Cell Painting phenotypic profile (signed KS, 77 features) to DMSO centroid (dimensionless distance); 5 or 10 uM (library dependent); higher = stronger phenotypic change vs DMSO (phenoactivity); conditions: 48 h
The entries below come with measured Euclidean distance values attached.
Reply briefly: the number, and no unit.

Check out these entries, answers already filled in.
CC(C)c1cnn2c(NCc3ccccc3)cc(NCCCCCCN)nc12 ... 0.657
CN(C)CCc1c[nH]c2ccc(CS(=O)(=O)N3CCCC3)cc12 [Almotriptan Malate] ... 1.05
OC[C@@H](O)[C@@H](O[C@@H]1O[C@H](CO)[C@H](O)[C@H](O)[C@H]1O)[C@H](O)[C@@H](O)CO ... 0.637
CC(=O)O[C@H]1Cc2ccccc2N(C(N)=O)c2ccccc21 [Eslicarbazepine Acetate] ... 0.621

Prompt: # Euclidean distance lookup, item `Cc1ccc(C(=O)c2cc(O)c(O)c([N+](=O)[O-])c2)cc1`
Response: 0.991

Prompt: # Euclidean distance lookup, item `COc1cc(Nc2ncc(F)c(Nc3ccc4c(n3)NC(=O)C(C)(C)O4)n2)cc(OC)c1OC`
Response: 1.65

Prompt: # Euclidean distance lookup, item CC(=O)NS(=O)(=O)c1ccc(N)cc1 [Sulfacetamide]
Response: 1.08

Prompt: # Euclidean distance lookup, item `CONC(=O)Nc1ccc(-c2sc3c(c2CN(C)C)c(=O)n(-c2ccc(OC)nn2)c(=O)n3Cc2c(F)cccc2F)cc1`
Response: 1.06

###

system: FB; assay: Euclidean distance of Cell Painting phenotypic profile (signed KS, 77 features) to DMSO centroid (dimensionless distance); 5 or 10 uM (library dependent); higher = stronger phenotypic change vs DMSO (phenoactivity); settings: 48 h
Counter-ions that a name gives are not always drawn.
The entries below come with measured Euclidean distance values attached.
Reply briefly: the number, and no unit.

Check out these entries, answers already filled in.
O=C(CCCCCCNC(=O)c1cnc(N(c2ccccc2)c2ccccc2)nc1)NO [Ricolinostat (ACY-1215)] ... 3.31
CCOC(=O)c1ccc(NC2CCCCC2)c(N)c1 [Ferrostatin-1 (Fer-1)] ... 1.18
C[N+](C)(C)CCOC(=O)CCC(=O)OCC[N+](C)(C)C [Succinylcholine Chloride Dihydrate] ... 1.82

Would you kindly look at the next entry?
Prompt: API: value(readout=Euclidean distance, system=FB) for record C1CCN2C[C@@H]3C[C@@H](CN4CCCC[C@@H]34)[C@H]2C1 [(-)-Sparteine Sulfate]
Response: 1.03

###

The entries below come with measured Euclidean distance values attached.
tested on: DU145; experiment: Euclidean distance of Cell Painting phenotypic profile (signed KS, 77 features) to DMSO centroid (dimensionless distance); 5 or 10 uM (library dependent); higher = stronger phenotypic change vs DMSO (phenoactivity); details: 48 h
Counter-ions that a name gives are not always drawn.
Reply briefly: the number, and no unit.

COc1ccc(CC(C)(C)NC[C@H](O)c2cc(O)cc3c2OCC(=O)N3)cc1 [Olodaterol hydrochloride] ... 1.21

Prompt: # Euclidean distance lookup, item CCN(CC)CCNC(=O)c1cc(Cl)c(N)cc1OC [Metoclopramide HCl]
Response: 0.62

Prompt: # Euclidean distance lookup, item `CCCCC(=O)N(Cc1ccc(-c2ccccc2-c2nnn[nH]2)cc1)[C@H](C(=O)O)C(C)C`
Response: 0.682

Prompt: # Euclidean distance lookup, item `O=C(/C=C/c1ccc(O)c(O)c1)OCCc1ccccc1`
Response: 1.1

Prompt: # Euclidean distance lookup, item C[C@@H]1NC(=O)[C@@H](N)CNC(=O)[C@H](C2CCNC(=N)N2)NC(=O)/C(=C/NC(N)=O)NC(=O)[C@H](CNC(=O)CC(N)CCCN)NC1=O.N=C1NCC[C@H]([C@@H]2NC(=O)/C(=C/NC(N)=O)NC(=O)[C@H](CNC(=O)C[C@@H](N)CCCN)NC(=O)[C@H](CO)NC(=O)[C@@H](N)CNC2=O)N1 [Capreomycin Sulfate]
Response: 1.37

Prompt: # Euclidean distance lookup, item `CC(C)(C)Cn1c(N)nc2ccc(-c3[nH]c(C(C)(C)C)nc3-c3ccc(F)cc3)nc21`
Response: 2.57
